Protein target, amino acids: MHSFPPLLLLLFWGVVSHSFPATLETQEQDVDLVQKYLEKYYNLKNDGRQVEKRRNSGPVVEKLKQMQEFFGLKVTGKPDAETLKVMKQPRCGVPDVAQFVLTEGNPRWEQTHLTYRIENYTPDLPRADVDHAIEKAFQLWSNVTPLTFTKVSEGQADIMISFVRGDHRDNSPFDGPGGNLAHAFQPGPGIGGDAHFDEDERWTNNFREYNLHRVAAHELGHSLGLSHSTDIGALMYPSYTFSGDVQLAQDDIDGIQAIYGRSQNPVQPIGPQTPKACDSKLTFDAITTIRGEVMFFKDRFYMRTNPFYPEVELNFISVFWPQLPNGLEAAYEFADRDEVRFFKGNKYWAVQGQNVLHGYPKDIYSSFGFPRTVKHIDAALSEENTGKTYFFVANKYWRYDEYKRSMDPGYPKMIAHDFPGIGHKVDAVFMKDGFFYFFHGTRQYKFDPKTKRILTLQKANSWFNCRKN
result.type: IC50 (nM)
Supply the numeric figure in nM, leaving out any unit text.

Summary for this compound, CC#CCOc1ccc(S(=O)(=O)N2CCSC(C)(C)[C@@H]2C(=O)NO)cc1 : IC50 is 6.6

----------
subject.of.test: A disintegrin and metalloproteinase with thrombospondin motifs 4 (Homo sapiens)
Sequence (O75173 whole entry): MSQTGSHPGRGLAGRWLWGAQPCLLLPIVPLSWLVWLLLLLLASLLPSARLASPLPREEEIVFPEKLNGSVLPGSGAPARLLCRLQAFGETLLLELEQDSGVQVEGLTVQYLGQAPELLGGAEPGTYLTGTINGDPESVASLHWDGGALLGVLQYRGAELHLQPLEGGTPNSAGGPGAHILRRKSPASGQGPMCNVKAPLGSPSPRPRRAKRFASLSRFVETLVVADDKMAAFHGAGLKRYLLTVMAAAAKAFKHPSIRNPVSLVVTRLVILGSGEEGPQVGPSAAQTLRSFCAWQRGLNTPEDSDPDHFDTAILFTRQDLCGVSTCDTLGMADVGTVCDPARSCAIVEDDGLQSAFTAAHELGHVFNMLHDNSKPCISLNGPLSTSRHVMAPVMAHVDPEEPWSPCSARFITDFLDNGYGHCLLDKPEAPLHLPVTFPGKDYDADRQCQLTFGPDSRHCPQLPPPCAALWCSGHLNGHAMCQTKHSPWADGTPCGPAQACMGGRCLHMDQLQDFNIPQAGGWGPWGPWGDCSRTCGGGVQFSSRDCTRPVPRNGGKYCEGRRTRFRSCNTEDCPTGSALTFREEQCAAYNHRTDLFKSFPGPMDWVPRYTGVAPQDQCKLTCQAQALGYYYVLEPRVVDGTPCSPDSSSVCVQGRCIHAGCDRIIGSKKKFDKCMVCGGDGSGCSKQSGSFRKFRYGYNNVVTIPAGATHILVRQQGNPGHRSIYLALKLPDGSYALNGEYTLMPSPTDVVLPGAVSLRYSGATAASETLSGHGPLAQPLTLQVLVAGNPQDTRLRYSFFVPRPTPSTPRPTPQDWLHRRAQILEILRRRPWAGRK
result.type: pIC50
Hey, just a heads up that pIC50 is the negative log base 10 of the concentration in molar.

Given item CC#CCOc1ccc(S(=O)(=O)N2CCSC(C)(C)[C@@H]2C(=O)NO)cc1 , the value recorded as its pIC50 is 7.00

----------
subject.of.test: Matrilysin (Homo sapiens, UniProt P09237)
Sequence (P09237 whole entry): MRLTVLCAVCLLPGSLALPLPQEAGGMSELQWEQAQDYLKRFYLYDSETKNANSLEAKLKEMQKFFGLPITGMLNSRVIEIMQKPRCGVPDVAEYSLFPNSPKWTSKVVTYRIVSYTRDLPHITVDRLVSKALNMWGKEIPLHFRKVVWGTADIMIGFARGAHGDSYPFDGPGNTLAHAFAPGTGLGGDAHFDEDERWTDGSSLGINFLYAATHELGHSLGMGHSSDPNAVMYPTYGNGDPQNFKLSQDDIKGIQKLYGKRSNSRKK
result.type: pIC50
Conceptually, pIC50 converts a concentration in mol/L into minus its log10.

The reported pIC50 of the compound CC#CCOc1ccc(S(=O)(=O)N2CCSC(C)(C)[C@@H]2C(=O)NO)cc1 was 7.59
